I'd be grateful if you could share measured Selectivity Index (SI) (CC50MTT/EC50pLDH) P. knowlesi PKA1H1 for these entries.
test system: P. knowlesi PKA1H1; assay: pLDH antimalarial assay, P. knowlesi A1H1; type: cell-based, Plasmodium knowlesi; settings: Vero CC50 / PKA1H1 EC50
Just the number.

Recall and state the measured Selectivity Index (SI) (CC50MTT/EC50pLDH) P. knowlesi PKA1H1 for COc1cc(C=CC(=O)C=Cc2cc(OC)c(OC)c(OC)c2)cc(OC)c1OC [MS34C] .
11.4

Please supply the value of reported Selectivity Index (SI) (CC50MTT/EC50pLDH) P. knowlesi PKA1H1 for the item COc1cccc(OC)c1C=CC(=O)C=Cc1c(OC)cccc1OC [MS33D]
9.5

Retrieve Selectivity Index (SI) (CC50MTT/EC50pLDH) P. knowlesi PKA1H1 measured for O=C1C(=Cc2ccccc2Cl)CCCC1=Cc1ccccc1Cl [MS47] and print it.
7.9

Quickly give me recorded Selectivity Index (SI) (CC50MTT/EC50pLDH) P. knowlesi PKA1H1 for O=C(C=Cc1cccc(Cl)c1)C=Cc1cccc(Cl)c1 [MS40B]
9.9

Answer with reported Selectivity Index (SI) (CC50MTT/EC50pLDH) P. knowlesi PKA1H1 of COc1cc(C=C2CCC(=Cc3cc(OC)c(OC)c(OC)c3)C2=O)cc(OC)c1OC [MS87]
49.5

Item COc1cccc(C=CC(=O)C=Cc2cccc(OC)c2OC)c1OC [MS33A] : provide Selectivity Index (SI) (CC50MTT/EC50pLDH) P. knowlesi PKA1H1
22.9

Provide measured Selectivity Index (SI) (CC50MTT/EC50pLDH) P. knowlesi PKA1H1 value, entry: COc1ccc(OC)c(C=CC(=O)C=Cc2cc(OC)ccc2OC)c1 [MS33C]
32.0

###

test system: P. falciparum 3D7 (CQ-sensitive); test: pLDH antimalarial assay, P. falciparum 3D7; assay type: cell-based, Plasmodium falciparum; conditions: Plasmodium falciparum, 3D7, 48 h, read-out: P. falciparum 3D7 (CQ-sensitive) EC50 (μM) ± SD, pLDH assay, 48 h, three independent experiments
Kindly supply the reported EC50 values for the records listed here.

Respond only with EC50 recorded for O=C1C(=Cc2ccccc2Cl)CCCC1=Cc1ccccc1Cl [MS47]
16.1 µM

Give the reported value of EC50 for this record: COc1ccc(OC)c(C=CC(=O)C=Cc2cc(OC)ccc2OC)c1 [MS33C]
< 5 µM

State its EC50: COc1cccc(C=C2CCCC(=Cc3cccc(OC)c3OC)C2=O)c1OC [MS69]
> 500 µM

Specify measured EC50 for COc1cccc(OC)c1C=CC(=O)C=Cc1c(OC)cccc1OC [MS33D] .
21.7 µM

Report EC50 for O=C1C(=Cc2cccc(F)c2)CCC1=Cc1cccc(F)c1 [MS79]
> 500 µM

###

Provide the recorded CC50 for the entries that follow.
test system: Vero cell (Normal cell); experiment: MTT cytotoxicity assay against Vero cells; format: cell-based; conditions: read-out: Vero cell (Normal cell) CC50 (μM) ± SD, 72 h, three independent experiments
Write it as a number; the unit µM goes unstated.

For the compound COc1cccc(C=CC(=O)C=Cc2cccc(OC)c2OC)c1OC [MS33A] , give its reported CC50.
82.6

Tell me measured CC50 for COc1ccc(OC)c(C=CC(=O)C=Cc2cc(OC)ccc2OC)c1 [MS33C] please.
163

Identify the reported CC50 for the following entry. COc1cc(C=CC(=O)C=Cc2cc(OC)c(OC)c(OC)c2)cc(OC)c1OC [MS34C]
134
